Test system: Human immunodeficiency virus 1
Assay: Antiviral activity against HIV1 3B expressing wild type reverse transcriptase infected in human MT4 cells assessed as protection against virus-induced cytopathic effect after 5 days by MTT assay
Format: functional, cell-based
Conditions: Human immunodeficiency virus 1, 3B, MT4, 120 h
pEC50: −log10 of the molar value.
Given measured pEC50, output Fulfilled if it is greater than or equal to 7 and Not fulfilled if not.

As a guide, the following entries are already answered.
Textbook exercise: given the entry Cc1cc(C)c(Oc2cc(Cl)nc(NC3CCN(Cc4ccc(C(N)=O)cc4)CC3)c2)c(C)c1 , state whether its pEC50 is greater than or equal to 7. Fulfilled

Textbook exercise: given the entry COc1cc(Oc2c(C)cc(C#N)cc2C)cc(NC2CCN(Cc3ccc(S(C)(=O)=O)cc3)CC2)n1 , state whether its pEC50 is greater than or equal to 7. Fulfilled

Textbook exercise: given the entry Cc1cc(C#N)cc(C)c1Oc1cc(Cl)nc(NC2CCN(CC3CCC3)CC2)c1 , state whether its pEC50 is greater than or equal to 7. Not fulfilled

Textbook exercise: given the entry Cc1cc(C#N)cc(C)c1Oc1cc(Cl)nc(Nc2ccc(CN3CCOCC3)cc2)c1 , state whether its pEC50 is greater than or equal to 7. Not fulfilled

Textbook exercise: given the entry Nc1ccn([C@@H]2CS[C@H](CO)O2)c(=O)n1 , state whether its pEC50 is greater than or equal to 7. Not fulfilled

Continuing:
Textbook exercise: given the entry COc1cc(Oc2c(C)cc(C#N)cc2C)cc(NC2CCN(Cc3ccncc3)CC2)n1 , state whether its pEC50 is greater than or equal to 7. Fulfilled

Textbook exercise: given the entry Cc1cc(C#N)cc(C)c1Oc1cc(Cl)nc(NC2CCN(Cc3ccccc3)CC2)c1 , state whether its pEC50 is greater than or equal to 7. Fulfilled

Textbook exercise: given the entry COc1cc(Oc2c(C)cc(C#N)cc2C)cc(NC2CCN(CC3CC3)CC2)n1 , state whether its pEC50 is greater than or equal to 7. Not fulfilled

Textbook exercise: given the entry Cc1cc(C#N)cc(C)c1Oc1cc(Cl)nc(NC2CCN(Cc3ccc(S(C)(=O)=O)cc3)CC2)c1 , state whether its pEC50 is greater than or equal to 7. Fulfilled
